Assay System: T1, human melanocortin-4 receptor (recombinant hMC4-R) (human, UniProt P32245 1-332)
T1 construct: whole, on cells; Ki assays used membrane homogenates of HEK-293 cells expressing recombinant hMC4-R; cAMP assays used HEK-293 T-REx cells induced with 0.1 ng/mL doxycycline; also called human MC4-R; MC4 receptor
T1 sequence (P32245 whole entry): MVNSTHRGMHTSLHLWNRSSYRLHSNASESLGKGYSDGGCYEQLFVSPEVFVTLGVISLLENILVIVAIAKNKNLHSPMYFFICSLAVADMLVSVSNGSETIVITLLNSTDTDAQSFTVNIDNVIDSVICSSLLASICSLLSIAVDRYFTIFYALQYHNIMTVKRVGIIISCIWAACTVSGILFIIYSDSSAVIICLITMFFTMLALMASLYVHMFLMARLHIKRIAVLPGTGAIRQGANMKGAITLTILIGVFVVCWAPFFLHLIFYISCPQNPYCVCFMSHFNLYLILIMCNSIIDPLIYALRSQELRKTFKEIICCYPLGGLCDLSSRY
Measurement Description: competition with labelled NDP-α-MSH ([I125] or Eu), hMC4-R HEK-293 membranes
Numbered stars: 1 amine (or outer) side, 2 acyl side, 3 side chain; on linkers, the order of the positions; unused ones are H or OH. Bridge positions count the residues as written; N and C are the ends. Square brackets hold non-standard residues; d marks the D form. Ser(Bzl) = O-benzyl-serine, O=C([C@H](COCc1ccccc1)N[*:1])[*:2]; Pro(trans-4-NH2) = O=C([C@@H]1C[C@@H](N[*:3])CN1[*:1])[*:2]; Met(O2) = CS(=O)(=O)CC[C@H](N)C(=O)O; Orn = NCCC[C@H](N)C(=O)O
Measurement Type: Ki (nM)

>>> quantitative_readout("Ac-RD[Ser(Bzl)][dF]RWK-OH (lactam 2-7, also called Peptide Structure (Asp...Lys) in the rows of No. 17 and No. 48) [Asp...Lys analog of peptides No. 17 and No. 48: Ac-Arg-cyclo(Asp-Ser(Bzl)-D-Phe-Arg-Trp-Lys)-OH]")
9
>>> quantitative_readout("Ac-RD[Met(O2)][dF]RWK-NH2 (lactam 2-7, also called Peptide Structure (Asp...Lys) in the row of No. 13) [Asp...Lys analog of peptide No. 13: Ac-Arg-cyclo(Asp-Met(O2)-D-Phe-Arg-Trp-Lys)-NH2]")
7
>>> quantitative_readout("Ac-EQ[dF]RW[Orn]-NH2 (lactam 1-6; SMILES CC(=O)N[C@H]1CCC(=O)NCCC[C@@H](C(N)=O)NC(=O)[C@H](Cc2c[nH]c3ccccc23)NC(=O)[C@H](CCCNC(=N)N)NC(=O)[C@@H](Cc2ccccc2)NC(=O)[C@H](CCC(N)=O)NC1=O) [Peptide No. 21: Ac-cyclo(Glu-Gln-D-Phe-Arg-Trp-Orn)-NH2]")
74
>>> quantitative_readout("Ac-REH[dF]RW[Orn]-OH (lactam 2-7) [Peptide No. 3: Ac-Arg-cyclo(Glu-His-D-Phe-Arg-Trp-Orn)-OH]")
24
>>> quantitative_readout("XEHFRWX (N-terminal acetyl; Nle at 1; D-Phe at 4; Orn at 7; side-chain lactam Glu2-Orn7; C-terminal amide (-NH2)) [Peptide No. 2: Ac-Nle-cyclo(Glu-His-D-Phe-Arg-Trp-Orn)-NH2]")
0.1
>>> quantitative_readout("Ac-RDN[dF]RWK-NH2 (lactam 2-7; SMILES CC(=O)N[C@@H](CCCNC(=N)N)C(=O)N[C@H]1CC(=O)NCCCC[C@@H](C(N)=O)NC(=O)[C@H](Cc2c[nH]c3ccccc23)NC(=O)[C@H](CCCNC(=N)N)NC(=O)[C@@H](Cc2ccccc2)NC(=O)[C@H](CC(N)=O)NC1=O, also called Peptide Structure (Asp...Lys) in the rows of No. 34 and No. 46) [Asp...Lys analog of peptides No. 34 and No. 46: Ac-Arg-cyclo(Asp-Asn-D-Phe-Arg-Trp-Lys)-NH2]")
32
>>> quantitative_readout("Ac-RD[Pro(trans-4-NH2)][dF]RWK-NH2 (lactam 2-7, also called Peptide Structure (Asp...Lys) in the row of No. 32) [Asp...Lys analog of peptide No. 32: Ac-Arg-cyclo(Asp-Pro(4R-NH2)-D-Phe-Arg-Trp-Lys)-NH2]")
5
>>> quantitative_readout("Ac-RDQ[dF]RWK-OH (lactam 2-7, also called Peptide Structure (Asp...Lys) in the row of No. 11) [Asp...Lys analog of peptide No. 11: Ac-Arg-cyclo(Asp-Gln-D-Phe-Arg-Trp-Lys)-OH]")
115
>>> quantitative_readout("Ac-RDK[dF]RWK-NH2 (lactam 2-7, also called Peptide Structure (Asp...Lys) in the row of No. 16) [Asp...Lys analog of peptide No. 16: Ac-Arg-cyclo(Asp-Lys-D-Phe-Arg-Trp-Lys)-NH2]")
30
>>> quantitative_readout("Ac-REN[dF]RW[Orn]-NH2 (lactam 2-7) [Peptide No. 34: Ac-Arg-cyclo(Glu-Asn-D-Phe-Arg-Trp-Orn)-NH2]")
6

[1] Ac-RE[Orn][dF]RW[Orn]-NH2 (lactam 2-7) [Peptide No. 8: Ac-Arg-cyclo(Glu-Orn-D-Phe-Arg-Trp-Orn)-NH2]
[2] Ac-REN[dF]RW[Orn]-OH (lactam 2-7) [Peptide No. 20: Ac-Arg-cyclo(Glu-Asn-D-Phe-Arg-Trp-Orn)-OH]
Given the two records 1 and 2 , choose the one whose Ki value is lower. Refer to your chosen item by its label in the answer.
1
(1: 9 nM, 2: 167 nM)
